# PROTOCOL: Biodistribution studies of 11C tracers
# Assay type: in vivo, Wistar rats
# TEST_PARAMETERS: 30 min p.i.
Catalogue of % ID Carcass values
Respond with the bare value in % ID.

                                   molecule  reading
0  [11CH3]Oc1ccc(F)cc1C1CCN(c2ccn3c(CC4CC4)nnc3c2Cl)CC1 [[^11C]B-4]     64.3
1  [11CH3]Oc1cccc(F)c1C1CCN(c2ccn3c(CC4CC4)nnc3c2Cl)CC1 [[^11C]B-6]     61.8

With those in mind, consider the next molecule.
// % ID Carcass value for [11CH3]Oc1c(F)ccc(F)c1C1CCN(c2ccn3c(CC4CC4)nnc3c2C(F)(F)F)CC1 [[^11C]B-3] : 46.7
